Each entry below carries its reported Lum 120: Area.
Tested on: in vitro model of the blood brain barrier (brain capillary endothelial cells co-cultured with glial cells)
Test: In vitro BBB model: passage of p97 tryptic digest peptides, LC-MS/MS peak areas in luminal and abluminal compartments
Type: in vitro ADME, rat
Measure: Lum 120: Area

INSERT INTO results (sequence_content, value) VALUES
  ('AVPVGEKTTYR (listed as Homo sapiens) [tryptic peptide fragment of human p97]', '0.00E+00'),
  ('CVGNSQERYYGYR (listed as Homo sapiens) [tryptic peptide fragment of human p97]', '0.00E+00'),
  ('ADVTEWRQCHLAR (listed as Homo sapiens) [tryptic peptide fragment of human p97]', '0.00E+00'),
  ('CLVENAGDVAFVR (listed as Homo sapiens) [tryptic peptide fragment of human p97]', '5.49E+08'),
  ('WCVLSTPEIQK (listed as Homo sapiens) [tryptic peptide fragment of human p97]', '0.00E+00'),
  ('CGNMSEAFR (listed as Homo sapiens) [tryptic peptide fragment of human p97]', '0.00E+00');

----------
Tested on: in vitro model of the blood brain barrier (brain capillary endothelial cells co-cultured with glial cells)
Test: In vitro BBB model: passage of p97 tryptic digest peptides, LC-MS/MS peak areas in luminal and abluminal compartments
Type: in vitro ADME, rat
Each entry below carries its reported Ablum 120: Area.
Measure: Ablum 120: Area

INSERT INTO measurements (substance, value) VALUES
  ('CGNMSEAFR (listed as Homo sapiens) [tryptic peptide fragment of human p97]', '2.53E+07'),
  ('HSTVLENTDGK (listed as Homo sapiens) [tryptic peptide fragment of human p97]', '0.00E+00'),
  ('CLVENAGDVAFVR (listed as Homo sapiens) [tryptic peptide fragment of human p97]', '1.30E+08'),
  ('AVPVGEKTTYR (listed as Homo sapiens) [tryptic peptide fragment of human p97]', '0.00E+00'),
  ('LLNEGQR (listed as Homo sapiens) [tryptic peptide fragment of human p97]', '0.00E+00'),
  ('ADVTEWRQCHLAR (listed as Homo sapiens) [tryptic peptide fragment of human p97]', '4.26E+06');

----------
System: in vitro model of the blood brain barrier (brain capillary endothelial cells co-cultured with glial cells)
Assay: In vitro BBB model: passage of p97 tryptic digest peptides, LC-MS/MS peak areas in luminal and abluminal compartments
Type: in vitro ADME, rat
Details: tryptic peptides, luminal compartment, 120 minutes, 4 micron pore size, LC-MS/MS peak area
Measure: Lum 120: Area

INSERT INTO measurements (sequence_content, measure, value) VALUES
  ('NYPSSLCALCVGDEQGR [tryptic peptide fragment of human p97]', 'Lum 120: Area', '5.52E+08'),
  ('GDSSGEGVCDKSPLER [tryptic peptide fragment of human p97]', 'Lum 120: Area', '4.75E+08'),
  ('DLLFKDSTSELVPIATQTYEAWLGHEYLHAMK [tryptic peptide fragment of human p97]', 'Lum 120: Area', '3.76E+07'),
  ('ADTDGGLIFRLLNEGQR [tryptic peptide fragment of human p97]', 'Lum 120: Area', '3.36E+07'),
  ('LCRGDSSGEGVCDK [tryptic peptide fragment of human p97]', 'Lum 120: Area', '2.44E+05'),
  ('TVGWNVPVGYLVESGR [tryptic peptide fragment of human p97]', 'Lum 120: Area', '1.01E+08'),
  ('DSSHAFTLDELRGK [tryptic peptide fragment of human p97]', 'Lum 120: Area', '0.00E+00'),
  ('AVSDYFGGSCVPGAGETSYSESLCR [tryptic peptide fragment of human p97]', 'Lum 120: Area', '5.03E+09'),
  ('EHGLKPVVGEVYDQEVGTSYYAVAVVRR [tryptic peptide fragment of human p97]', 'Lum 120: Area', '0.00E+00'),
  ('MFDSSNYHGQDLLFKDATVR [tryptic peptide fragment of human p97]', 'Lum 120: Area', '0.00E+00');

FYI, the data here is from patent US9364567B2.
